- TESTED SYSTEM: T1, 4H687-bH
- T1 chain: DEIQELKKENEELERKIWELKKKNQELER
- ASSAY NOTES: two-hybrid library CCNG1;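 further: natural log of median RNA to DNA barcode read ratio; higher means stronger binding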
QUANTITY: interaction score

Illustrative cases are given below, each with its answer.
> print(dat)
                                     binder           quantity  measurement
1  DENQELKKKIEELERKNWELEKKIQELER [4H1845-bH]  interaction score        -0.46
2  DEIQELEKKIEELKREIWELKKENQELER [4H331-bH]  interaction score       -0.531
3  DEIQELEKKNEELKREIWELKKKIQELKR [4H462-bH]  interaction score         1.31
4  DKNQELEKKIEELERENWELKKEIQELKR [4H3354-bH]  interaction score         -2.6

(A) DEIQELEKKNEELKREIWELEKKIQELKR [4H454-bH]
(B) DKIQELKKEIEELERKNWELKKEIQELKR [4H2618-bH]
(C) DEIQELKKEIEELERKNWELEKKNQELKR [4H568-bH]
(D) DKNQELEKEIEELKRKNWELEKEIQELER [4H3185-bH]
Incoming: Could you please sort these 4 entries by interaction score from high to low? Respond with the label ranking, as requested.
Outgoing: A, B, C, D

(A) DKIQELKKEIEELEREIWELKKKNQELKR [4H2576-bH]
(B) DKIQELEKKNEELEREIWELKKEIQELKR [4H2442-bH]
(C) DENQELEKKIEELERKIWELKKKNQELKR [4H1328-bH]
(D) DKNQELKKKIEELEREIWELKKKNQELER [4H3855-bH]
Incoming: Could you please sort these 4 entries by interaction score from high to low? Respond with the label ranking, as requested.
Outgoing: B, A, D, C
(B: -0.163, A: -0.475, D: -0.688, C: -1.73)

(I) DEIQELEKKIEELKRENWELEKEIQELKR [4H338-bH]
(II) DEIQELEKKIEELKRKNWELEKEIQELKR [4H370-bH]
Incoming: Between these two entries, I and II , state which has the higher interaction score. Answer format: the label of the selected item.
Outgoing: I
